The reported numbers originate from paper PMC5697638.

assaySystem: human PI3Kα (PIK3CA/PIK3R1) (Homo sapiens, UniProt P42336)
Construct: purchased ProQinase, Germany 1161‐1165‐1
Sequence (P42336 whole entry): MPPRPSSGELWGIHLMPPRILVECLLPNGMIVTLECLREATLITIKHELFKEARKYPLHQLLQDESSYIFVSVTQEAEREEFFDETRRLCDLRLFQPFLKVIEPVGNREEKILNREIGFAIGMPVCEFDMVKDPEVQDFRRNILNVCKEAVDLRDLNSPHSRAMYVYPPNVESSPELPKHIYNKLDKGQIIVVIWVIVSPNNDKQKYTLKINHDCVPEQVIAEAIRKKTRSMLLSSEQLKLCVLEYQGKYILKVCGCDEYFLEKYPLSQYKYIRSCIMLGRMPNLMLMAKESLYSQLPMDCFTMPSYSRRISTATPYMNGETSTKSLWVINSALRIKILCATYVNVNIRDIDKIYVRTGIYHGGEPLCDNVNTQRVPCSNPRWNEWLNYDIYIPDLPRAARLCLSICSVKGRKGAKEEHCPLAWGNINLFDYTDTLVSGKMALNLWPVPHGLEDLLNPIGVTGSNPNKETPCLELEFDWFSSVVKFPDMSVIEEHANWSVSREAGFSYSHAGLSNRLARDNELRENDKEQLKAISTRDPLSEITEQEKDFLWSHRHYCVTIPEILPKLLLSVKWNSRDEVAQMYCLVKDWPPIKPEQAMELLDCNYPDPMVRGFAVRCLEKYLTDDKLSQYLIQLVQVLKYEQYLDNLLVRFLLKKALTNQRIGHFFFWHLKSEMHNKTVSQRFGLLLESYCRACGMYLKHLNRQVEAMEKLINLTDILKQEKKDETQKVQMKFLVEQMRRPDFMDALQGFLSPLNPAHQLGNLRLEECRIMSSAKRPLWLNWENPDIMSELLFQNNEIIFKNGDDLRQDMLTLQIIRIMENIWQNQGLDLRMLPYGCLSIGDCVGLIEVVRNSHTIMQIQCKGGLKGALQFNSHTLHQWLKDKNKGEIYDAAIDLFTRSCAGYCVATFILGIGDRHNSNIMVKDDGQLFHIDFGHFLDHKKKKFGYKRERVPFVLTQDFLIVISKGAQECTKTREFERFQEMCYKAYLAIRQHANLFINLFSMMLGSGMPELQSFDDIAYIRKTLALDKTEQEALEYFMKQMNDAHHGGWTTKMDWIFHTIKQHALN
Sequence (P27986 whole entry partner): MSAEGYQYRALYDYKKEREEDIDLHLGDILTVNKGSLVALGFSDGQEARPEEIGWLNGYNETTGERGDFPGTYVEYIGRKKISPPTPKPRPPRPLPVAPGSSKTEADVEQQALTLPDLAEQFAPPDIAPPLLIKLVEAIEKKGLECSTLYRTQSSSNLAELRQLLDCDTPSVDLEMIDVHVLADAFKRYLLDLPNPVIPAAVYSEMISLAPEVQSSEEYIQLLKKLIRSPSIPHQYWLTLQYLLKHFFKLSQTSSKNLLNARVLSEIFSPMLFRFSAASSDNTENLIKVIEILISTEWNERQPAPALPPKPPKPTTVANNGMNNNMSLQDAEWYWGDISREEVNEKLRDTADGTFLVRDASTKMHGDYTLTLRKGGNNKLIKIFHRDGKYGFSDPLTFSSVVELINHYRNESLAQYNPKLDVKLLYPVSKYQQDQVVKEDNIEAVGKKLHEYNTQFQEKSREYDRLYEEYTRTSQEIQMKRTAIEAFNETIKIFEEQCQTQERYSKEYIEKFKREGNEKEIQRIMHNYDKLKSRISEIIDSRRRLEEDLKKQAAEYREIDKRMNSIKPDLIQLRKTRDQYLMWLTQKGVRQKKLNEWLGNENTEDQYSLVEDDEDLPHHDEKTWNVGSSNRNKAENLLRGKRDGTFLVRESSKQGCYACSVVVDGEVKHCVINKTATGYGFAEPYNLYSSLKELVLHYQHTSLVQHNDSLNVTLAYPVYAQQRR
measurementProtocol: lipid kinase assay (ADP-Glo), PI3Kα
Assay type: biochemical
conditionsUsed: determined at 1 μM, at least triplicate; read-out: Inhibitory activity, PI3K isoform α
# reported inhibition at 1 µM; entries follow

Solved cases below.
molecule	inhibition at 1 µM
O=c1cc(N2CCOCC2)[nH]c2c(-c3cn(-c4cnc5ccccc5c4)nn3)cccc12 [Compound 36]	< 50%
COC(=O)c1ccc(-n2cc(-c3cccc4c(=O)cc(N5CCOCC5)[nH]c34)nn2)cc1 [Compound 42]	< 50%
O=c1cc(N2CCOCC2)[nH]c2c(-c3cn(-c4ccccc4O)nn3)cccc12 [Compound 54]	> 50%
O=c1cc(N2CCOCC2)[nH]c2c(-c3cn(-c4ccc5ccccc5c4)nn3)cccc12 [Compound 34]	< 50%
Nc1ccc(-n2cc(-c3cccc4c(=O)cc(N5CCOCC5)[nH]c34)nn2)cc1 [Compound 32]	< 50%
COc1ccc(-n2cc(-c3cccc4c(=O)cc(N5CCOCC5)[nH]c34)nn2)cc1OC [Compound 43]	< 50%
COC(=O)c1ccc(Cn2cc(-c3cccc4c(=O)cc(N5CCOCC5)[nH]c34)nn2)cc1 [Compound 31]	< 50%
O=c1cc(N2CCOCC2)[nH]c2c(-c3cn(-c4cccc(O)c4)nn3)cccc12 [Compound 26]	< 50%

[in] Field: inhibition at 1 µM (human PI3Kα (PIK3CA/PIK3R1) (Homo sapiens, UniProt P42336)). Entry: COc1cccc(-n2cc(-c3cccc4c(=O)cc(N5CCOCC5)[nH]c34)nn2)c1 [Compound 35]
[out] < 50%

[in] Would you mind doing O=c1cc(N2CCOCC2)[nH]c2c(-c3cn(-c4cccc5ccccc45)nn3)cccc12 [Compound 53] as well?
[out] < 50%

[in] And the next one, O=c1cc(N2CCOCC2)[nH]c2c(-c3cn(-c4ccc(OC(F)(F)F)cc4)nn3)cccc12 [Compound 29] ?
[out] < 50%

[in] Next: O=c1cc(N2CCOCC2)[nH]c2c(-c3cn(-c4ccc(Cl)cc4)nn3)cccc12 [Compound 28]
[out] < 50%

[in] Input NS(=O)(=O)c1ccc(-n2cc(-c3cccc4c(=O)cc(N5CCOCC5)[nH]c34)nn2)cc1 [Compound 50]
[out] < 50%

[in] Here is the next molecule: COc1ccc(-n2cc(-c3cccc4c(=O)cc(N5CCOCC5)[nH]c34)nn2)cc1O [Compound 27]
[out] < 50%

[in] Would you mind doing O=C(O)c1ccc(-n2cc(-c3cccc4c(=O)cc(N5CCOCC5)[nH]c34)nn2)cc1 [Compound 45] as well?
[out] > 50%

[in] And COc1cc(OC)cc(-n2cc(-c3cccc4c(=O)cc(N5CCOCC5)[nH]c34)nn2)c1 [Compound 47] ?
[out] < 50%

[in] Try this molecule too: O=C(O)c1cccc(-n2cc(-c3cccc4c(=O)cc(N5CCOCC5)[nH]c34)nn2)c1 [Compound 52]
[out] < 50%

[in] Try the molecule O=c1cc(N2CCOCC2)[nH]c2c(-c3cn(-c4ccc5c(c4)OCO5)nn3)cccc12 [Compound 46]
[out] < 50%

[in] Now try N#CCc1ccc(-n2cc(-c3cccc4c(=O)cc(N5CCOCC5)[nH]c34)nn2)cc1 [Compound 33] .
[out] < 50%

[in] Repeat for the following molecule: COc1ccc(-n2cc(-c3cccc4c(=O)cc(N5CCOCC5)[nH]c34)nn2)cc1 [Compound 44]
[out] < 50%

[in] O=c1cc(N2CCOCC2)[nH]c2c(-c3cn(-c4ccccc4)nn3)cccc12 [Compound 25] ?
[out] > 50%

[in] Next record, please: O=c1cc(N2CCOCC2)[nH]c2c(-c3cn(Cc4ccccc4)nn3)cccc12 [Compound 48]
[out] < 50%

[in] Subsequent entry: COc1ccc(-n2cc(-c3cccc4c(=O)cc(N5CCOCC5)[nH]c34)nn2)cc1[N+](=O)[O-] [Compound 30]
[out] < 50%

[in] What about this molecule? O=C(O)c1cccc(Cn2cc(-c3cccc4c(=O)cc(N5CCOCC5)[nH]c34)nn2)c1 [Compound 37]
[out] > 50%
